test system: Fer (mouse); test: phosphorylation enrichment, bacterial display (enrichment ratio); higher = better substrate or ligand; peptides without Tyr show the background
# cutoff 0.6 applies to phosphorylation enrichment; >= gives criterion met, < gives criterion not met

>  <query-sequence>
STILLYHIMAW [GPR143_Y157]

>  <tested-on>
Fer (mouse)

>  <class>
criterion met

$$$$

**Q:** Reported phosphorylation enrichment reaches at least 0.6 for NVVNEYSSELE [FGB_Y172] ?
**A:** criterion not met

**Q:** Reported phosphorylation enrichment reaches at least 0.6 for QSPQLYKQLCI [DARS1_Y253_M256L] ?
**A:** criterion not met

**Q:** Reported phosphorylation enrichment reaches at least 0.6 for EKSREYDRLFE [PIK3R1_Y463_YF] ?
**A:** criterion not met

###

tested on: AncSZ; assay: phosphorylation enrichment, bacterial display (enrichment ratio); higher = better substrate or ligand; peptides without Tyr show the background
Kindly state phosphorylation enrichment for each of the entries shown.
Give bare numbers.

As a guide, the following entries are already answered.
>  <query-sequence>
EEGENYQKGER [CHGB_Y173]

>  <phosphorylation enrichment>
0.921

$$$$
>  <query-sequence>
LGGAMYYLEAE [PKHD1_Y452]

>  <phosphorylation enrichment>
1.42

$$$$
>  <query-sequence>
YDGGCYEQLFV [MC4R_Y41_S36Y]

>  <phosphorylation enrichment>
2.51

$$$$

Below are some sequences; for each one, tell me its phosphorylation enrichment.
1. RPIEVYLCPEE [E2F3_Y349_G344R]
2. AYGNLYGSRKQ [YIPF7_Y59]
3. CEAIEYLESKQ [BTK_Y511_M509I]
4. FFRKVYHLASV [RBL1_Y796_YF]

**A:**
1: 3.41; 2: 0.525; 3: 1.29; 4: 0.697

###

tested on: AncSZ; test: phosphorylation enrichment, bacterial display (enrichment ratio); higher = better substrate or ligand; peptides without Tyr show the background
Kindly state phosphorylation enrichment for each of the entries shown.
Answers are plain numbers.

As a guide, the following entries are already answered.
>  <query-sequence>
ESMNTYLQTSP [NAT1_Y208]

>  <tested-on>
AncSZ

>  <phosphorylation enrichment>
1

$$$$
>  <query-sequence>
TEAGNYKLCFD [TMED1_Y103_D102N]

>  <tested-on>
AncSZ

>  <phosphorylation enrichment>
1.12

$$$$
>  <query-sequence>
IQSAKYDMAED [TTC21B_Y1213]

>  <tested-on>
AncSZ

>  <phosphorylation enrichment>
1.21

$$$$
>  <query-sequence>
QPSALYEDRFL [ASS1_Y83_S79P_YF]

>  <tested-on>
AncSZ

>  <phosphorylation enrichment>
1.4

$$$$
>  <query-sequence>
SHNKYYMLVAR [MFSD8_Y134]

>  <tested-on>
AncSZ

>  <phosphorylation enrichment>
0.825

$$$$

Below are some sequences; for each one, tell me its phosphorylation enrichment.
1. FKEVVYQAMEE [TACC3_Y684_E680K]
2. FKEQGYHRLPP [RIN1_Y681_YF]
3. VYPATYHPDHW [EFCAB12_Y544]
4. ENGPYYTSYPP [GDAP2_Y488]
5. MLEAPYVDRNS [F10_Y384_V382A]
6. RELSWYRGQRP [HESX1_Y106_R109Q]

**A:**
1. 1.55
2. 0.441
3. 0.554
4. 1.31
5. 0.747
6. 0.962

Below are some sequences; for each one, tell me its phosphorylation enrichment.
1. KWRGQYDVAIR [BTK_Y425_K430R]
2. IYETDYYRKGG [INSR_Y1189]
3. KDPPDYKYQPR [SOX9_Y172_H169P]
4. YSKTQYNQVPR [CXADR_Y318_S323R]
5. GVSYIYTIDGS [DCX_Y105_R102S]
6. GNHISYYQSDG [CACNA1C_Y1757_V1755I]
7. GLRFGYGGLGG [KRTAP20-2_Y15_V17G_YF]
8. FSLIHYAGIVD [MYH7_Y582]

**A:**
0.96
1.05
0.837
0.531
1.11
0.821
0.655
0.997

Below are some sequences; for each one, tell me its phosphorylation enrichment.
1. RREQDYTNLPS [CSF1R_Y923_R921Q]
2. FYDANCDGKEY [MAPRE2_Y162_Y162C]
3. AGLEDYDRLRP [RAC3_Y64_Q61L]
4. TTKGSYSLSVR [HCK_Y180]
5. DNPAKYFILEN [DPP10_Y512_S517N]
6. RSRQIYDAFIM [GRK3_Y109_YF]
7. GFPVRYTDVSN [DNMT3B_Y815_H814R]

**A:**
1: 0.805; 2: 1.21; 3: 1.13; 4: 0.674; 5: 1.03; 6: 0.51; 7: 0.606

Below are some sequences; for each one, tell me its phosphorylation enrichment.
1. KSFDMYSGDVM [FAM3D_Y122_A118S]
2. NTCNRYCCDEI [ITGB3_Y660_R662C]
3. PYADPYYDYEI [ZC3H18_Y371]

**A:**
1: 0.998; 2: 1.44; 3: 4.79

###

Kindly state SH2 binding enrichment for each of the entries shown.
molecular target: c-Src SH2; assay: SH2 binding enrichment of the phosphorylated peptide, bacterial display (enrichment ratio); higher = better substrate or ligand; peptides without Tyr show the background;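 also: peptide library displayed on the E. coli surface as eCPX fusions, selected cells deep-sequenced, score is each peptide's frequency after selection divided by its frequency in the input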
One number for each entry.

As a guide, the following entries are already answered.
>  <query-sequence>
HVIKLYGACSQ [RET_Y791]

>  <SH2 binding enrichment>
0.537

$$$$
>  <query-sequence>
QCTSAHPLQPE [NANS_Y188_Y188H]

>  <SH2 binding enrichment>
0.594

$$$$
>  <query-sequence>
IMAFFYMCDSA [CASD1_Y382_R386S_YF]

>  <SH2 binding enrichment>
0.551

$$$$
>  <query-sequence>
QEGPEYWDQQT [HLA-A_Y83_E87Q]

>  <SH2 binding enrichment>
0.421

$$$$
>  <query-sequence>
VHNLDYFKKTT [FGFR3_Y647_YF]

>  <SH2 binding enrichment>
0.406

$$$$
>  <query-sequence>
DLDLTYIFPNI [PTEN_Y27_YF]

>  <SH2 binding enrichment>
0.329

$$$$

Below are some sequences; for each one, tell me its SH2 binding enrichment.
1. QISSNYDDAMQ [ZNF281_Y531]
2. KALSLYTKLMN [STAM_Y371_E366K]

**A:**
1.11
2.23

Below are some sequences; for each one, tell me its SH2 binding enrichment.
1. SFPSTYRFERG [INPPL1_Y661_P659S_YF]
2. FQNSLYAPDYS [FAM92A_Y226_R222Q]
3. RLPSGYGLAYR [DLK1_Y262]
4. YQQLFYLLQIN [IQGAP2_Y890_T894I]

**A:**
1: 0.466; 2: 0.628; 3: 0.844; 4: 0.91

###

molecular target: EPHB2 (UniProt P29323); assay: phosphorylation enrichment, bacterial display (enrichment ratio); higher = better substrate or ligand; peptides without Tyr show the background
Sequence (P29323 whole entry, looked up): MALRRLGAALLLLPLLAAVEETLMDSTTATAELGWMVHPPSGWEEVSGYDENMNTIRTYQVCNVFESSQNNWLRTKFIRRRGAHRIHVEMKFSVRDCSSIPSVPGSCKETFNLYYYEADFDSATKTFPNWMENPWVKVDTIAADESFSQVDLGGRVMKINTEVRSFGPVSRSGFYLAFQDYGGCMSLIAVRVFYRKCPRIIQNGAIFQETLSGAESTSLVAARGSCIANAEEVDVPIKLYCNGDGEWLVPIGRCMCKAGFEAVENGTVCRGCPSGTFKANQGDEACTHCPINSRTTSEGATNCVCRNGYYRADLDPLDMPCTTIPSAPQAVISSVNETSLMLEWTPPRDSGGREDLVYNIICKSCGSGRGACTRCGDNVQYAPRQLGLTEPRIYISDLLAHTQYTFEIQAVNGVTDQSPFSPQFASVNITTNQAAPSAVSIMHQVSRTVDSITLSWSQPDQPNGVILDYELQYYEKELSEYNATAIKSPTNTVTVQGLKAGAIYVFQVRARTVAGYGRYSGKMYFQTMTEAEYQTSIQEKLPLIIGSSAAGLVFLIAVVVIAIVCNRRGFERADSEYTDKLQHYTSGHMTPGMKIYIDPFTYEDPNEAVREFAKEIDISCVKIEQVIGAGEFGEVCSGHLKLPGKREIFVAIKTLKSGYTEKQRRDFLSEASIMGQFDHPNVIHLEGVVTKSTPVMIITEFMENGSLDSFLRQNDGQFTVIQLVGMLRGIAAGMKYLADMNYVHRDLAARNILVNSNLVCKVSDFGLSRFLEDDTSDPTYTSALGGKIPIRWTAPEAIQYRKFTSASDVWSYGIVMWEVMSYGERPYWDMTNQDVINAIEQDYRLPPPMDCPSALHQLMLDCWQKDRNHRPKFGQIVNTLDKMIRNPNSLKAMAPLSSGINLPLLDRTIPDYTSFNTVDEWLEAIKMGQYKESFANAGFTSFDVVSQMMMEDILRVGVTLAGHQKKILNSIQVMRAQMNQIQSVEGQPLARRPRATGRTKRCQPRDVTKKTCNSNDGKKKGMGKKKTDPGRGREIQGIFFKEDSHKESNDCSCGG
Categories are defined by ranges of phosphorylation enrichment, namely lower band = under 0.5, central band = from 0.5 up to 0.6, upper band = 0.6 and over

// known answers, use as guide
>  <query-sequence>
TEAEPYYRSLR [NPHS1_Y1138]

>  <class>
lower band

$$$$
>  <query-sequence>
GIVEDYRPPLF [ACVRL1_Y421_F425L_YF]

>  <class>
lower band

$$$$
>  <query-sequence>
IHHIDYFKETT [FGFR1_Y653_K656E_YF]

>  <class>
lower band

$$$$
>  <query-sequence>
VDSGVYAVPPP [BCAR1_Y410]

>  <class>
upper band

$$$$
>  <query-sequence>
LPEHPYHSRPR [NDUFA8_Y142_N140H]

>  <class>
upper band

$$$$

**Q:** // return the class label for QCTSAHPLQPE [NANS_Y188_Y188H]
**A:** upper band

**Q:** // return the class label for LKRIAYFLCLL [LGI1_Y21]
**A:** central band

**Q:** // return the class label for AAYNKYDQERF [CDC73_Y293_R292K]
**A:** lower band

###

system: AncSZ; assay: phosphorylation enrichment, bacterial display (enrichment ratio); higher = better substrate or ligand; peptides without Tyr show the background
assay-readout: phosphorylation enrichment
Answers are plain numbers.

As a guide, the following entries are already answered.
>  <query-sequence>
FDKPVYQKTTE [LDLR_Y828_N825K]

>  <observed-measurement>
0.684

$$$$
>  <query-sequence>
RLGLQYSQGLV [EIF2B4_Y214]

>  <observed-measurement>
0.876

$$$$
>  <query-sequence>
RHYVYYYSYLL [PTEN_Y177_R173H]

>  <observed-measurement>
1.89

$$$$
>  <query-sequence>
CTTIHNNFMCN [TP53_Y234_Y234N_YF]

>  <observed-measurement>
0.879

$$$$
>  <query-sequence>
QMIETYFDFRV [NSMF_Y506_L511V]

>  <observed-measurement>
1.77

$$$$

Below are some sequences; for each one, tell me its phosphorylation enrichment.
1. TSSAGYRRTPS [ABI1_Y333_G331A]
2. KGEPQYSSHSS [SIPA1L3_Y1265]
3. CNPLRYPVLMS [OR2T1_Y182]

**A:**
[0.565, 0.515, 0.839]
